Target: recombinant thioredoxin reductase 1 (TrxR1) (Homo sapiens, UniProt Q16881)
Sequence (Q16881 1-649): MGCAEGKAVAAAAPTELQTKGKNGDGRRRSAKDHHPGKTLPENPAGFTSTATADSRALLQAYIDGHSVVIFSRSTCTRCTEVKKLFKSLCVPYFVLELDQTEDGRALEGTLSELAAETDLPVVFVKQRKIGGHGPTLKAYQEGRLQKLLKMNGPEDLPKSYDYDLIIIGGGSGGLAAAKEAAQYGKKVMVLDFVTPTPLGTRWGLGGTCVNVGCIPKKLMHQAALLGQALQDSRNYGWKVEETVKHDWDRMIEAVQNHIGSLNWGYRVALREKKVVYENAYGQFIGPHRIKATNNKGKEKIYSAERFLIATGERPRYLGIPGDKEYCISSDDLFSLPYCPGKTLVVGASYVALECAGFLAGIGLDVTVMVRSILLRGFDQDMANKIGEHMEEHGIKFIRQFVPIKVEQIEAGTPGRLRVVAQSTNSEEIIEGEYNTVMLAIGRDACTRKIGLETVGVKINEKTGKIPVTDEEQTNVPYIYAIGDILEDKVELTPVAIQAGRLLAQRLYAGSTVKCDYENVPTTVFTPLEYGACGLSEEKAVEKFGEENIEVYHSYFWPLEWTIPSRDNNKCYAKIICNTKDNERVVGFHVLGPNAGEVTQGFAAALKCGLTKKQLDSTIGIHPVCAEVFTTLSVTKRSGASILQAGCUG
Assay: Inhibition of recombinant TrxR1 (DTNB assay)
Assay type: biochemical
Details: Biological Example 4; assays of Biological Example 1; read-out: TrxR Inhibition
Where a name gives a salt, the structure may show the parent alone.
For each record, write down the corresponding log10 of IC50.
Friendly reminder: values = log10 of IC50, unit nM.

Tell us which log10 of IC50 value is on record for CCN1C(=O)[C@@H]2[C@H](C1=O)[C@H]1C(=O)C=C[C@@H]2N1Cc1cccc(C)c1 (relative stereo)
3.40

In one line, give reported log10 of IC50 of the entry NS(=O)(=O)c1cccc(CN2[C@@H]3C(=O)C=C[C@H]2[C@@H]2C(=O)N(c4ccccc4)C(=O)[C@@H]23)c1 (relative stereo) .
3.30

Report log10 of IC50, nothing else, for this compound: O=C1C=C[C@H]2[C@@H]3C(=O)N(c4ccccc4)C(=O)[C@@H]3[C@@H]1N2Cc1ccccc1Cl (relative stereo)
3.11

Look up log10 of IC50 of Cc1cc(CN2C3C=CC(=O)C2C2C(=O)N(c4ccccc4)C(=O)C23)ccc1F (centres unmarked) and report it.
2.97

Please supply the value of reported log10 of IC50 for the item CN1C(=O)C2C(C1=O)C1C(=O)C=CC2N1C (centres unmarked)
4.19

Given Cc1cc(C)cc(CN2C3C=CC(=O)C2C2C(=O)N(c4ccccc4)C(=O)C23)c1 (centres unmarked) , respond with its log10 of IC50.
3.12

Specify reported log10 of IC50 for the compound shown: Cc1cccc(CN2[C@@H]3C(=O)C=C[C@H]2[C@@H]2C(=O)N(c4ccccc4)C(=O)[C@@H]23)c1 (relative stereo)
3.06

Answer with the recorded log10 of IC50 of CC(c1ccccc1)N1C2C=CC(=O)C1C1C(=O)N(c3ccccc3)C(=O)C12 (centres unmarked) [Example 5, Trifluoroacetate] only.
3.40

Indicate the recorded log10 of IC50 value for this compound: O=C1C=C[C@H]2[C@@H]3C(=O)N(Cc4ccccc4)C(=O)[C@@H]3[C@@H]1N2Cc1ccccc1 (relative stereo)
2.95

Identify log10 of IC50 associated with the compound CC1=CC(=O)C2C3C(=O)N(c4ccccc4)C(=O)C3C1N2Cc1ccccc1 (centres unmarked) [Example 12, Trifluoroacetate]
3.10

Give the reported log10 of IC50 for this compound. CCN1C(=O)[C@@H]2[C@H](C1=O)[C@H]1C(=O)C=C[C@@H]2N1Cc1ccccc1 (relative stereo)
3.62

Name the recorded log10 of IC50 of the compound listed here: CCc1ccc(N2C(=O)[C@@H]3[C@H](C2=O)[C@H]2C(=O)C=C[C@@H]3N2Cc2cccc(C)c2)cc1 (relative stereo)
3.21

Consider the compound CS(=O)(=O)c1ccc(CN2[C@@H]3C(=O)C=C[C@H]2[C@@H]2C(=O)N(c4ccccc4)C(=O)[C@@H]23)cc1 (relative stereo) and give its recorded log10 of IC50.
3.58

Using known records, supply log10 of IC50 for Cc1cccc(CN2[C@@H]3C(=O)C=C[C@H]2[C@@H]2C(=O)N(c4ccccc4O)C(=O)[C@@H]23)c1 (relative stereo)
3.16

---

Could you please report measured IC50 for the items listed next?
Molecular target: UniProtKB P00390
Sequence (P00390 44-522): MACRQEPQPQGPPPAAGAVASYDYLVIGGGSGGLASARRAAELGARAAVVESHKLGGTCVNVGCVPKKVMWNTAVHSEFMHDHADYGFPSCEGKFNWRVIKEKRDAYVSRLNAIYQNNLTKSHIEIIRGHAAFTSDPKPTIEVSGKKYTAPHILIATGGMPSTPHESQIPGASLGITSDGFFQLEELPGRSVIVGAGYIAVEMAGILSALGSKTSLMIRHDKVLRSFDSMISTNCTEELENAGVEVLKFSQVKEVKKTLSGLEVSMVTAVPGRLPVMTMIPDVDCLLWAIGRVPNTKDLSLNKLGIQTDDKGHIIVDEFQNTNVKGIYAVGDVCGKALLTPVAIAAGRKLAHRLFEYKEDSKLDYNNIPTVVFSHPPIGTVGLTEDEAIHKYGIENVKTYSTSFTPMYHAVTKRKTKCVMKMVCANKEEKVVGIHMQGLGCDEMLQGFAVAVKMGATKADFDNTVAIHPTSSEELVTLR
Test: Inhibition of recombinant GR (GSSG assay)
Assay type: biochemical
Settings: Biological Example 1; 2 nM GR, 250 μM NADPH, 15 minutes incubation
Structures can show the parent of a compound that is named as a salt.

Note down IC50 recorded for CS(=O)(=O)c1cccc(CN2[C@@H]3C(=O)C=C[C@H]2[C@@H]2C(=O)N(c4ccccc4)C(=O)[C@@H]23)c1 (relative stereo)
> 100 µM

Give reported IC50 value for CN1[C@@H]2C(=O)C=C[C@H]1[C@@H]1C(=O)N(c3ccccc3)C(=O)[C@@H]12 (relative stereo)
44 µM

Identify IC50 associated with the molecule CC1=CC(=O)C2C3C(=O)N(Cc4ccccc4)C(=O)C3C1N2Cc1ccccc1 (centres unmarked) [Example 15, Trifluoroacetate]
> 100 µM

Consider the molecule O=C1C=C[C@H]2[C@@H]3C(=O)N(c4ccccc4)C(=O)[C@@H]3[C@@H]1N2Cc1ccc(F)cc1Cl (relative stereo) . State its measured IC50.
70.4 µM

Entry Cc1cccc(CN2[C@@H]3C(=O)C=C[C@H]2[C@@H]2C(=O)N(c4ccccc4)C(=O)[C@@H]23)c1 (relative stereo) needs its IC50 filled in; supply it.
> 100 µM

---

Molecular target: gluthathione reductase (GR) (Homo sapiens)
Test: Inhibition of recombinant GR (GSSG assay)
Type: biochemical
Settings: Biological Example 4; assays of Biological Example 1
pIC50: −log10 of the molar value. Where a name gives a salt, the structure may show the parent alone.
MEASURED_ENDPOINT: pIC50

Annotate the compound Cc1ccccc1CN1[C@@H]2C(=O)C=C[C@H]1[C@@H]1C(=O)N(c3ccccc3)C(=O)[C@@H]12 (relative stereo) with its measured pIC50.
< 4.00

Item Cc1cccc(CN2[C@@H]3C(=O)C=C[C@H]2[C@@H]2C(=O)N(C)C(=O)[C@@H]23)c1 (relative stereo) : provide pIC50
< 4.00

# return recorded pIC50 for entry O=C1C=CC2C3C(=O)N(c4ccccc4)C(=O)C3C1N2Cc1ccccc1Br (stereo not drawn) [Example 20, Trifluoroacetate]
< 4.00

Give reported pIC50 value for CS(=O)(=O)c1ccc(CN2[C@@H]3C(=O)C=C[C@H]2[C@@H]2C(=O)N(c4ccccc4)C(=O)[C@@H]23)cc1 (relative stereo)
< 4.00

Name the recorded pIC50 of the compound listed here: Cc1cccc(CN2[C@@H]3C(=O)C=C[C@H]2[C@@H]2C(=O)N(c4cccc(O)c4)C(=O)[C@@H]23)c1 (relative stereo)
< 4.00

Give pIC50 for COc1cccc(CN2[C@@H]3C(=O)C=C[C@H]2[C@@H]2C(=O)N(c4ccccc4)C(=O)[C@@H]23)c1 (relative stereo)
4.12

---

Assignment: determine reported IC50 for the given compounds.
Target: recombinant thioredoxin reductase 1 (TrxR1) (Homo sapiens, UniProt Q16881)
Test: Inhibition of recombinant TrxR1 (DTNB assay)
Format: biochemical
Conditions: Biological Example 4; assays of Biological Example 1; read-out: TrxR Inhibition
Structures can show the parent of a compound that is named as a salt.
Number in µM, nothing else.

Recall the reported IC50 of COC(=O)c1cccc(CN2[C@@H]3C(=O)C=C[C@H]2[C@H]2C(=O)N(c4ccccc4)C(=O)[C@H]23)c1 (relative stereo) when tested on recombinant thioredoxin reductase 1 (TrxR1) (Homo sapiens, UniProt Q16881).
1.4

# return IC50 of CC1=CC(=O)C2C3C(=O)N(Cc4ccccc4)C(=O)C3C1N2Cc1ccccc1 (centres unmarked) [Example 15, Trifluoroacetate] (system: recombinant thioredoxin reductase 1 (TrxR1) (Homo sapiens, UniProt Q16881))
3.33

Write down the reported IC50 (system: recombinant thioredoxin reductase 1 (TrxR1) (Homo sapiens, UniProt Q16881)) of Cc1cccc(CN2[C@@H]3C(=O)C=C[C@H]2[C@@H]2C(=O)N(C)C(=O)[C@@H]23)c1 (relative stereo)
3.26

Provide IC50, tested on recombinant thioredoxin reductase 1 (TrxR1) (Homo sapiens, UniProt Q16881), for O=C1C=C[C@H]2[C@@H]3C(=O)N(c4ccccc4)C(=O)[C@@H]3[C@@H]1N2CC1CC1 (relative stereo) .
7.06

Using recombinant thioredoxin reductase 1 (TrxR1) (Homo sapiens, UniProt Q16881) as the test system, report measured IC50 of CCN1C(=O)C2C(C1=O)[C@@H]1C=CC(=O)[C@H]2N1Cc1ccccc1 (relative stereo) .
5.1

Answer briefly: IC50 recorded on recombinant thioredoxin reductase 1 (TrxR1) (Homo sapiens, UniProt Q16881) for CC1=CC(=O)[C@@H]2[C@H]3C(=O)N(C4CCCCC4)C(=O)[C@H]3[C@H]1N2Cc1ccccc1 (relative stereo)
33.3

GET IC50 | system: recombinant thioredoxin reductase 1 (TrxR1) (Homo sapiens, UniProt Q16881) | item: O=C1C=C[C@H]2C3C(=O)N(C4CCCCC4)C(=O)C3[C@@H]1N2Cc1ccccc1 (mixture of isomers)
0.79

GET IC50 | system: recombinant thioredoxin reductase 1 (TrxR1) (Homo sapiens, UniProt Q16881) | item: Cc1ccccc1CN1[C@@H]2C(=O)C=C[C@H]1[C@@H]1C(=O)N(c3ccccc3)C(=O)[C@@H]12 (relative stereo)
1.5
